List of Kd values.
# system.under.test: equine FcRn (large alpha subunit p51) / equine beta-2-microglobulin complex, biotinylated (equine) (UniProt P30441)
# assay.overview: SPR (Biacore), pH 6
quantity.kind: Kd (nM)

binder	quantity.kind	unit.symbol	value.measured
equine IgG4 A426C (antibody, part only; not given: variable domains, not shown: another chain or arm of the molecule) constant: ASTTAPKVFPLASHSAATSGSTVALGCLVSSYFPEPVTVSWNSGALTSGVHTFPSVLQSSGLYSLSSMVTVPASSLKSQTYICNVAHPASSTKVDKKIVIKECNGGCPAECLQVGPSVFIFPPKPKDVLMISRTPTVTCVVVDVGHDFPDVQFNWYVDGVETHTATTEPKQEQFNSTYRVVSVLPIQHKDWLSGKEFKCKVNNKALPAPVERTISKPTGQPREPQVYVLAPHRDELSKNKVSVTCLVKDFYPTDIDIEWKSNGQPEPETKYSTTPAQLDSDGSYFLYSKLTVETNRWQQGTTFTCCVMHEALHNHYTEKSVSKSPGK	Kd	nM	18.2
equine IgG4 Y436V (antibody, part only; not given: variable domains, not shown: another chain or arm of the molecule) constant: ASTTAPKVFPLASHSAATSGSTVALGCLVSSYFPEPVTVSWNSGALTSGVHTFPSVLQSSGLYSLSSMVTVPASSLKSQTYICNVAHPASSTKVDKKIVIKECNGGCPAECLQVGPSVFIFPPKPKDVLMISRTPTVTCVVVDVGHDFPDVQFNWYVDGVETHTATTEPKQEQFNSTYRVVSVLPIQHKDWLSGKEFKCKVNNKALPAPVERTISKPTGQPREPQVYVLAPHRDELSKNKVSVTCLVKDFYPTDIDIEWKSNGQPEPETKYSTTPAQLDSDGSYFLYSKLTVETNRWQQGTTFTCAVMHEALHNHVTEKSVSKSPGK	Kd	nM	13.2
equine IgG1 D312P (antibody, part only; not given: variable domains, not shown: another chain or arm of the molecule) constant: ASTTAPKVFALAPGCGTTSDSTVALGCLVSGYFPEPVKVSWNSGSLTSGVHTFPSVLQSSGFYSLSSMVTVPASTWTSETYICNVVHAASNFKVDKRIEPIPDNHQKVCDMSKCPKCPAPELLGGPSVFIFPPNPKDTLMITRTPEVTCVVVDVSQENPDVKFNWYMDGVEVRTATTRPKEEQFNSTYRVVSVLRIQHQPWLSGKEFKCKVNNQALPQPIERTITKTKGRSQEPQVYVLAPHPDELSKSKVSVTCLVKDFYPPEINIEWQSNGQPELETKYSTTQAQQDSDGSYFLYSKLSVDRNRWQQGTTFTCGVMHEALHNHYTQKNVSKNPGK	Kd	nM	8.88
equine IgG4 K311M (antibody, part only; not given: variable domains, not shown: another chain or arm of the molecule) constant: ASTTAPKVFPLASHSAATSGSTVALGCLVSSYFPEPVTVSWNSGALTSGVHTFPSVLQSSGLYSLSSMVTVPASSLKSQTYICNVAHPASSTKVDKKIVIKECNGGCPAECLQVGPSVFIFPPKPKDVLMISRTPTVTCVVVDVGHDFPDVQFNWYVDGVETHTATTEPKQEQFNSTYRVVSVLPIQHMDWLSGKEFKCKVNNKALPAPVERTISKPTGQPREPQVYVLAPHRDELSKNKVSVTCLVKDFYPTDIDIEWKSNGQPEPETKYSTTPAQLDSDGSYFLYSKLTVETNRWQQGTTFTCAVMHEALHNHYTEKSVSKSPGK	Kd	nM	16.4
equine IgG4 A426Y (antibody, part only; not given: variable domains, not shown: another chain or arm of the molecule) constant: ASTTAPKVFPLASHSAATSGSTVALGCLVSSYFPEPVTVSWNSGALTSGVHTFPSVLQSSGLYSLSSMVTVPASSLKSQTYICNVAHPASSTKVDKKIVIKECNGGCPAECLQVGPSVFIFPPKPKDVLMISRTPTVTCVVVDVGHDFPDVQFNWYVDGVETHTATTEPKQEQFNSTYRVVSVLPIQHKDWLSGKEFKCKVNNKALPAPVERTISKPTGQPREPQVYVLAPHRDELSKNKVSVTCLVKDFYPTDIDIEWKSNGQPEPETKYSTTPAQLDSDGSYFLYSKLTVETNRWQQGTTFTCYVMHEALHNHYTEKSVSKSPGK	Kd	nM	12.3
equine IgG4 A426W (antibody, part only; not given: variable domains, not shown: another chain or arm of the molecule) constant: ASTTAPKVFPLASHSAATSGSTVALGCLVSSYFPEPVTVSWNSGALTSGVHTFPSVLQSSGLYSLSSMVTVPASSLKSQTYICNVAHPASSTKVDKKIVIKECNGGCPAECLQVGPSVFIFPPKPKDVLMISRTPTVTCVVVDVGHDFPDVQFNWYVDGVETHTATTEPKQEQFNSTYRVVSVLPIQHKDWLSGKEFKCKVNNKALPAPVERTISKPTGQPREPQVYVLAPHRDELSKNKVSVTCLVKDFYPTDIDIEWKSNGQPEPETKYSTTPAQLDSDGSYFLYSKLTVETNRWQQGTTFTCWVMHEALHNHYTEKSVSKSPGK	Kd	nM	14.4
equine IgG4 T286R (antibody, part only; not given: variable domains, not shown: another chain or arm of the molecule) constant: ASTTAPKVFPLASHSAATSGSTVALGCLVSSYFPEPVTVSWNSGALTSGVHTFPSVLQSSGLYSLSSMVTVPASSLKSQTYICNVAHPASSTKVDKKIVIKECNGGCPAECLQVGPSVFIFPPKPKDVLMISRTPTVTCVVVDVGHDFPDVQFNWYVDGVETHRATTEPKQEQFNSTYRVVSVLPIQHKDWLSGKEFKCKVNNKALPAPVERTISKPTGQPREPQVYVLAPHRDELSKNKVSVTCLVKDFYPTDIDIEWKSNGQPEPETKYSTTPAQLDSDGSYFLYSKLTVETNRWQQGTTFTCAVMHEALHNHYTEKSVSKSPGK	Kd	nM	21.4
equine IgG1 Y436R (antibody, part only; not given: variable domains, not shown: another chain or arm of the molecule) constant: ASTTAPKVFALAPGCGTTSDSTVALGCLVSGYFPEPVKVSWNSGSLTSGVHTFPSVLQSSGFYSLSSMVTVPASTWTSETYICNVVHAASNFKVDKRIEPIPDNHQKVCDMSKCPKCPAPELLGGPSVFIFPPNPKDTLMITRTPEVTCVVVDVSQENPDVKFNWYMDGVEVRTATTRPKEEQFNSTYRVVSVLRIQHQDWLSGKEFKCKVNNQALPQPIERTITKTKGRSQEPQVYVLAPHPDELSKSKVSVTCLVKDFYPPEINIEWQSNGQPELETKYSTTQAQQDSDGSYFLYSKLSVDRNRWQQGTTFTCGVMHEALHNHRTQKNVSKNPGK	Kd	nM	25.6
